# credit: ChEMBL document CHEMBL3714716

Provide the recorded Emax at 72 h for the entries that follow.
assay: Cytotoxic activity against HEK293 cells assessed as reduction in cell viability by measuring ATP level incubated for 72 hrs by ATP cytotoxicity assay relative to control; assay type: cell-based; settings: human, read-out: %max
Give bare numbers, in %.

[
  {
    "substance.smiles": "O=C(Nc1ccccc1C(=O)Nc1cccc(C(F)(F)F)c1)c1cccs1",
    "Emax at 72 h / %": -78
  },
  {
    "substance.smiles": "O=C(Nc1cccc(C(F)(F)F)c1)c1ccccc1NC(=O)c1cccc2nc[nH]c12",
    "Emax at 72 h / %": -76
  },
  {
    "substance.smiles": "O=C(Nc1ccccc1C(=O)Nc1cccc(C(F)(F)F)c1)c1ccc2c(c1)OCO2",
    "Emax at 72 h / %": -31
  },
  {
    "substance.smiles": "O=C(Nc1ccccc1C(=O)Nc1cccc(C(F)(F)F)c1)c1ccno1",
    "Emax at 72 h / %": -73
  },
  {
    "substance.smiles": "O=C(Nc1ccccc1C(=O)Nc1cccc(C(F)(F)F)c1)c1ccncc1",
    "Emax at 72 h / %": 83
  },
  {
    "substance.smiles": "O=C(Nc1ccccc1C(=O)Nc1cccc(C(F)(F)F)c1)c1cccnc1",
    "Emax at 72 h / %": 85
  }
]

Asked: Entry `O=C(Nc1cccc(C(F)(F)F)c1)c1ccccc1NC(=O)C1CCCCC1` has what Emax at 72 h?
Given back: -53
